pEC50 by entry:
# assayed-system: ExsA (Pseudomonas aeruginosa, UniProt P26993)
# Sequence (P26993 1-278): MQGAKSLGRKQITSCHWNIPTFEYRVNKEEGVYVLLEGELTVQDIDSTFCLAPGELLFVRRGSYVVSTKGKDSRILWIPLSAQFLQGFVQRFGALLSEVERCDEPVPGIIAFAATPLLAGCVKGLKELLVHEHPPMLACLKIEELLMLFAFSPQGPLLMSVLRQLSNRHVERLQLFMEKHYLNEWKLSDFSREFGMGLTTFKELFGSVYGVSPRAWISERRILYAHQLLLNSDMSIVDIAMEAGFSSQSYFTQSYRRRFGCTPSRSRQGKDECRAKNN
# protocol-text: In vitro activity of Mar inhibitors against ExsA: cell-free DNA binding assay
# assay-conditions: purified ExsA from P. aeruginosa, inhibition of DNA binding in vitro
pEC50: −log10 of the molar value.

| structure-smiles | assayed-system | pEC50 |
| --- | --- | --- |
| N#Cc1ccc(C(=O)Nc2ccc(-c3nc4ccc(C#N)cc4n3O)cc2)cc1 | ExsA (Pseudomonas aeruginosa, UniProt P26993) | > 5.00 |
| Cc1ccc(/C=C/C(=O)Nc2ccc(-c3nc4ccc(C#N)cc4n3O)cc2)cc1 | ExsA (Pseudomonas aeruginosa, UniProt P26993) | > 5.00 |
| O=C(Nc1ccc(-c2nc3ccc([N+](=O)[O-])cc3n2O)cc1)c1ccccc1O | ExsA (Pseudomonas aeruginosa, UniProt P26993) | 4.60 to 5.00 |
| O=C(Nc1ccc(-c2nc3ccc([N+](=O)[O-])cc3n2O)nc1)c1ccc(F)cc1 | ExsA (Pseudomonas aeruginosa, UniProt P26993) | < 4.60 |
| N#Cc1ccc2nc(-c3ccc(NC(=O)c4ccc(F)cc4)cc3)n(O)c2c1 | ExsA (Pseudomonas aeruginosa, UniProt P26993) | 4.60 to 5.00 |
| O=C(Nc1ccc(-c2nc3ccc([N+](=O)[O-])cc3n2O)c(F)c1)c1ccc(F)cc1 | ExsA (Pseudomonas aeruginosa, UniProt P26993) | 4.60 to 5.00 |
| Cc1cc(C(=O)Nc2ccc(-c3nc4ccc([N+](=O)[O-])cc4n3O)cc2)ccc1F | ExsA (Pseudomonas aeruginosa, UniProt P26993) | 4.60 to 5.00 |
| O=C(Nc1ccc(-c2nc3ccc([N+](=O)[O-])cc3n2O)cc1)c1ccc(F)c(F)c1 | ExsA (Pseudomonas aeruginosa, UniProt P26993) | 4.60 to 5.00 |
| O=C(/C=C/c1ccc(F)c(CP(=O)(O)O)c1)Nc1ccc(-c2nc3ccc([N+](=O)[O-])cc3n2O)cc1 | ExsA (Pseudomonas aeruginosa, UniProt P26993) | 4.60 to 5.00 |
| N#Cc1ccc2nc(-c3ccc(NC(=O)/C=C/c4ccccc4)cc3)n(O)c2c1 | ExsA (Pseudomonas aeruginosa, UniProt P26993) | 4.60 to 5.00 |
| CCOP(=O)(Cc1cc(/C=C/C(=O)Nc2ccc(-c3nc4ccc([N+](=O)[O-])cc4n3O)cc2)ccc1F)OCC | ExsA (Pseudomonas aeruginosa, UniProt P26993) | > 5.00 |

* * *

# assayed-system: LcrF (VirF) (Yersinia pestis)
# Sequence (P28808 whole entry, looked up): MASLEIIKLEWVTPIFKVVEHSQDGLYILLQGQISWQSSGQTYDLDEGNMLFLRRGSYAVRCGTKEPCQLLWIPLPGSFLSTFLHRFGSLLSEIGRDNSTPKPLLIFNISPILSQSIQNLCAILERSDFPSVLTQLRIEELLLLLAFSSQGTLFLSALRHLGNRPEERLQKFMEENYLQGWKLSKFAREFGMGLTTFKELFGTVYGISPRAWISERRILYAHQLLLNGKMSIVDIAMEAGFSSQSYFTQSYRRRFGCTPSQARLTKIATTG
# protocol-text: biochemical
pEC50: −log10 of the molar value.
assay-readout: pEC50

| compound | result-value |
| --- | --- |
| NC(=NO)c1ccc2nc(-c3ccc(NC(=O)c4ccc(F)cc4)cc3)n(O)c2c1 [M] | < 4.60 |
| CN(C)CCN(C)c1cc2nc(-c3ccc(NC(=O)/C=C/c4ccc(F)cc4)cc3)n(O)c2cc1[N+](=O)[O-] [CE] | > 5.00 |
| CC(=O)c1ccc(/C=C/C(=O)Nc2ccc(-c3nc4cc(OCCN5CCN(C)CC5)c([N+](=O)[O-])cc4n3O)cc2)cc1 [CI] | > 5.00 |
| COc1cc(NC(=O)c2ccc(C(C)=O)cc2)ccc1-c1nc2ccc([N+](=O)[O-])cc2n1O [BG] | < 4.60 |
| O=C(Nc1ccc(-c2nc3ccc([N+](=O)[O-])cc3n2O)c(F)c1)c1ccc(F)cc1 [AH] | 4.60 to 5.00 |
| COc1ccc(/C=C/C(=O)Nc2ccc(-c3nc4ccc([N+](=O)[O-])cc4n3O)cc2)c(OC)c1 [J] | < 4.60 |
